Reference for the values: patent US20170362301A1

Catalogue of binding ratio vs parent P54AR4-83v2 values
# measurement target: EGFR (form in the assay not stated) (human, UniProt P00533 25-645, limits assumed)
# assay protocol: ELISA, NEM conjugate 10 nM
Just the number please, in ratio, no unit attached.

[
  {
    "binder": "P54AR4-83v2 L7C, NEM conjugate (designed binder, NEM on Cys 7, His-tagged) LPAPKNCVVSEVTEDSARLSWDDPWAFYESFLIQYQESEKVGEAIVLTVPGSERSYDLTGLKPGTEYTVSIYGVHNVYKDTNMRGLPLSAIFTT",
    "binding ratio vs parent P54AR4-83v2 [ratio]": 0.35
  },
  {
    "binder": "P54AR4-83v2 P4C, NEM conjugate (designed binder, NEM on Cys 4, His-tagged) LPACKNLVVSEVTEDSARLSWDDPWAFYESFLIQYQESEKVGEAIVLTVPGSERSYDLTGLKPGTEYTVSIYGVHNVYKDTNMRGLPLSAIFTT",
    "binding ratio vs parent P54AR4-83v2 [ratio]": 0.02
  },
  {
    "binder": "P54AR4-83v2 S10C, NEM conjugate (designed binder, NEM on Cys 10, His-tagged) LPAPKNLVVCEVTEDSARLSWDDPWAFYESFLIQYQESEKVGEAIVLTVPGSERSYDLTGLKPGTEYTVSIYGVHNVYKDTNMRGLPLSAIFTT",
    "binding ratio vs parent P54AR4-83v2 [ratio]": 0.83
  }
]

What value of binding ratio vs parent P54AR4-83v2 has been recorded for this entry: P54AR4-83v2 L32C, NEM conjugate (designed binder, NEM on Cys 32, His-tagged) LPAPKNLVVSEVTEDSARLSWDDPWAFYESFCIQYQESEKVGEAIVLTVPGSERSYDLTGLKPGTEYTVSIYGVHNVYKDTNMRGLPLSAIFTT 0.87
